# assay: Parenteral Toxicity--LD50 in mice
# measurement-context: mouse, in vivo, ip
# Experimental: The objective of this experiment was to determine the LD50 value for KCPBL when administered intraperitoneally to mice in a standard LD50 test procedure. The test animals were CD-1 male mice. […] All mice were observed daily for signs, symptoms and survival for three days. Survival statistics were determined after third day. […] LD50 was calculated by the method of Spearman & Karber: Basic Exercises in Immunochemistry, A. Nowatny (Ed); Pg 184-85, Springer-Verlag,N.J.
reported-property: LD50 at 72 h

compound="O=C1CCC(C2(O)C(=O)OC3C(O)COC32O)C1 (stereo not shown)" result="~8570 mg/kg"
